# Tgt: Adenosine receptor A1 (Rattus norvegicus)
# Sequence (P25099 whole entry): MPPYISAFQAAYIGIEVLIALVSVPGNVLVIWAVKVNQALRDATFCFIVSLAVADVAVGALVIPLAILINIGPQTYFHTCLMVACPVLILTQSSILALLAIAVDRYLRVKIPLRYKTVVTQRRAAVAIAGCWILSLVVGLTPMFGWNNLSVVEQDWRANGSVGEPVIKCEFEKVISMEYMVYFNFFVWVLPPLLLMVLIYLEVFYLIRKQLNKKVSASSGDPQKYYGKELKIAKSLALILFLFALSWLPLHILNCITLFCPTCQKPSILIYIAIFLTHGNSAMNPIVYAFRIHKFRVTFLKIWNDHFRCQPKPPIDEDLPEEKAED
# Test Details: Effective concentration for [35S]GTP-gamma-S, binding to adenosine A1 receptor in rat brain membranes
Known EC50 of a selection of compounds
Observable: EC50 (nM)

In [3]: df
Out[3]:
                                smiles_data                                       tgt  observable  uom  value_observed
0  O[C@@H]1[C@H](O)[C@@H](CCl)O[C@H]1n1cnc2c(NC3CCCC3)ncnc21  Adenosine receptor A1 (Rattus norvegicus)        EC50   nM              26
1  CCSC[C@H]1O[C@@H](n2cnc3c(NC4CCCC4)ncnc32)[C@H](O)[C@@H]1O  Adenosine receptor A1 (Rattus norvegicus)        EC50   nM             127
2  CCCNC[C@H]1O[C@@H](n2cnc3c(NC4CCCC4)ncnc32)[C@H](O)[C@@H]1O  Adenosine receptor A1 (Rattus norvegicus)        EC50   nM           13900

Attribution: ChEMBL document CHEMBL1131197
